The values you see were collected from ChEMBL document CHEMBL2390885.

- Test system: Hepatitis C virus
- Assay Summary: Antiviral activity against Hepatitis C virus genotype 1b by replicon assay
- Assay type: functional, organism-based, Hepacivirus hominis
For each record, check the reported EC50: if it is below 100 nM write fulfilled, else write not fulfilled.

Recorded results for 2 compounds are shown here.
Cc1ccccc1C(C)NC(=O)c1ccc(Sc2ccc(N)cc2)c(Nc2ncnc3nc(C(C)C)ccc23)c1 (stereo not drawn): fulfilled
CC(C)c1ccc2c(Nc3cc(C(=O)N[C@@H](C)c4ccc5ccccc5c4)ccc3Sc3ccc(N)cc3)ncnc2n1: fulfilled

Problem: In plain terms, does CC(C)c1ccc2c(Nc3cc(C(=O)NCc4ccccc4)ccc3Sc3ccc(N)cc3)ncnc2n1 come in under 100 nM for EC50?
Solution: not fulfilled

Problem: Does the reported EC50 of the following compound sit strictly below 100 nM? COc1ccccc1C(C)NC(=O)c1ccc(Sc2ccc(N)cc2)c(Nc2ncnc3nc(C(C)C)ccc23)c1 (stereo not drawn)
Solution: fulfilled

Problem: Field: below-cutoff. Rule: recorded EC50 strictly less than 100 nM. Subject: CC(C)c1ccc2c(Nc3cc(C(=O)NC(C)c4ccccc4F)ccc3Sc3ccc(N)cc3)ncnc2n1 (stereo not drawn)
Solution: fulfilled

Problem: For CC[C@@H](NC(=O)c1ccc(Sc2ccc(N)cc2)c(Nc2ncnc3nc(C(C)C)ccc23)c1)c1ccccc1 , is the recorded EC50 below the cut-off of 100 nM?
Solution: not fulfilled

Problem: Strictly below 100 nM in EC50? CC(C)c1ccc2c(Nc3cc(C(=O)N[C@H](CO)c4ccccc4)ccc3Sc3ccc(N)cc3)ncnc2n1
Solution: not fulfilled

Problem: Field: below-cutoff. Rule: recorded EC50 strictly less than 100 nM. Subject: COc1ccc([C@H](C)NC(=O)c2ccc(Sc3ccc(N)cc3)c(Nc3ncnc4nc(C(C)C)ccc34)c2)cc1
Solution: fulfilled

###

- Assay Summary: Cmax in Sprague-Dawley rat at 5 mg/kg, po
- Assay type: ADME, organism-based
- Set-up: dose 5 mg/kg, route oral
- Recorded Conditions: in vivo
For each record, check the reported Cmax: if it is below 200 ng/mL write 1, else write 0.

// known answers, use as guide
Cc1ccc([C@H](C)NC(=O)c2ccc(Sc3ccc(N)cc3)c(Nc3ncnc4nc(C(C)C)ccc34)c2)cc1: 1
CC(C)c1ccc2c(Nc3cc(C(=O)N[C@@](C)(CO)c4ccccc4)ccc3Sc3ccc(N)cc3)ncnc2n1: 0
CC(C)c1ccc2c(Nc3cc(C(=O)N[C@H](c4ccccc4)C(F)(F)F)ccc3Sc3ccc(N)cc3)ncnc2n1: 0
CC(C)c1ccc2c(Nc3cc(C(=O)N[C@@H](C)c4ccccc4)ccc3Sc3ccc(N)cc3)ncnc2n1: 0

Could you now look at the following compound, please?
Problem: Field: below-cutoff. Rule: recorded Cmax strictly less than 200 ng/mL. Subject: CC(C)c1ccc2c(Nc3cc(C(=O)N[C@@H](C)c4ccc(Br)cc4)ccc3Sc3ccc(N)cc3)ncnc2n1
Solution: 0

###

- Assay Summary: AUC in Sprague-Dawley rat at 5 mg/kg, po
- Type: ADME, organism-based
- Parameters: dose 5 mg/kg, route oral
- Recorded Conditions: plasma
Measured Parameter: log10 of AUC (log10 of the value in ng·h/mL)
Base-10 log of AUC, unit ng·h/mL.

Here are 2 molecules together with their reported answers.
CC(C)c1ccc2c(Nc3cc(C(=O)N[C@@H](C)C4CCCCC4)ccc3Sc3ccc(N)cc3)ncnc2n1: 2.40
CC(C)c1ccc2c(Nc3cc(C(=O)N[C@H](c4ccccc4)C(F)(F)F)ccc3Sc3ccc(N)cc3)ncnc2n1: 3.59

Problem: # lookup: log10 of AUC of Cc1ccc([C@H](C)NC(=O)c2ccc(Sc3ccc(N)cc3)c(Nc3ncnc4nc(C(C)C)ccc34)c2)cc1
Solution: 2.78

Problem: // query log10 of AUC value for entry CC(C)c1ccc2c(Nc3cc(C(=O)N[C@@H](C)c4ccc(Br)cc4)ccc3Sc3ccc(N)cc3)ncnc2n1
Solution: 3.58

Problem: Endpoint output: log10 of AUC of CC(C)c1ccc2c(Nc3cc(C(=O)N[C@@](C)(CO)c4ccccc4)ccc3Sc3ccc(N)cc3)ncnc2n1 . Value?
Solution: 2.95

Problem: Please give the measured log10 of AUC for this molecule: CC(C)c1ccc2c(Nc3cc(C(=O)N[C@@H](C)c4ccccc4)ccc3Sc3ccc(N)cc3)ncnc2n1
Solution: 3.81

###

- Tested on: Hepatitis C virus
- Assay Summary: Antiviral activity against Hepatitis C virus genotype 1b by replicon assay
- Format: functional, organism-based, Hepacivirus hominis
Could you mark each record YES if its EC50 falls strictly under 60 nM, and NO if it equals or exceeds it?

Illustrative cases are given below, each with its answer.
CC(C)c1ccc2c(Nc3cc(C(=O)N[C@@H](C)c4ccccc4)ccc3Oc3ccc(N)cc3)ncnc2n1: NO
CC(C)c1ccc2c(Nc3cc(C(=O)NC(C)c4ccc(C(F)(F)F)cc4)ccc3Sc3ccc(N)cc3)ncnc2n1 (stereo not drawn): YES
C[C@H](NC(=O)c1ccc(Sc2ccc(N)cc2)c(Nc2ncnc3nc(C(C)(C)C)ccc23)c1)c1ccccc1: YES
Cc1ccc([C@H](C)NC(=O)c2ccc(Sc3ccc(N)cc3)c(Nc3ncnc4nc(C(C)C)ccc34)c2)cc1: YES
CC(C)c1ccc2c(Nc3cc(C(=O)NC(C)c4cccnc4)ccc3Sc3ccc(N)cc3)ncnc2n1 (stereo not drawn): NO
COC(=O)Nc1ccc(Sc2ccc(C(=O)N[C@@H](C)c3ccccc3)cc2Nc2ncnc3nc(C(C)C)ccc23)cc1: YES

With those in mind, consider the next compound.
Problem: In the record for CC(C)c1ccc2c(Nc3cc(C(=O)N[C@@H](CO)c4ccccc4)ccc3Sc3ccc(N)cc3)ncnc2n1 , is EC50 less than 60 nM?
Solution: NO

###

- System: Hepatitis C virus
- Assay Summary: Antiviral activity against Hepatitis C virus genotype 1a by replicon assay
- Type: functional, organism-based, Hepacivirus hominis
- Recorded Conditions: subtype 1a
Measured Parameter: pEC50
In simple prose, pEC50 is minus the logarithm base ten of a concentration in moles per litre.

// known answers, use as guide
CC(C)c1ccc2c(Nc3cc(C(=O)N[C@@H](CCO)c4ccccc4)ccc3Sc3ccc(N)cc3)ncnc2n1: 5.83
CC(C)c1ccc2c(Nc3cc(C(=O)NC(C)c4ccncc4)ccc3Sc3ccc(N)cc3)ncnc2n1 (stereo not drawn): 5.93
CC[C@@H](NC(=O)c1ccc(Sc2ccc(N)cc2)c(Nc2ncnc3nc(C(C)C)ccc23)c1)c1ccccc1: 6.58
CC(C)c1ccc2c(Nc3cc(C(=O)NC(C)c4cccs4)ccc3Sc3ccc(N)cc3)ncnc2n1 (stereo not drawn): 6.42
CC(C)c1ccc2c(Nc3cc(C(=O)N[C@](C)(CO)c4ccccc4)ccc3Sc3ccc(N)cc3)ncnc2n1: 5.92

Problem: Reported pEC50 for Hepatitis C virus, given COc1ccc([C@H](C)NC(=O)c2ccc(Sc3ccc(N)cc3)c(Nc3ncnc4nc(C(C)C)ccc34)c2)cc1 ?
Solution: 7.05

Problem: Give Hepatitis C virus pEC50 for CC(C)c1ccc2c(Nc3cc(C(=O)N[C@@H](C)c4ccccc4)ccc3Sc3ccc(NS(C)(=O)=O)cc3)ncnc2n1
Solution: 6.46

Problem: Recall the recorded pEC50 for CC(C)c1ccc2c(Nc3cc(C(=O)N[C@@H](C)c4ccccc4)ccc3Sc3ccc(O)cc3)ncnc2n1 with Hepatitis C virus and state it.
Solution: 6.16

###

- System: Hepatitis C virus
- Assay Summary: Antiviral activity against Hepatitis C virus genotype 1b by replicon assay
- Format: functional, organism-based, Hepacivirus hominis
Measured Parameter: EC50 (nM)
Give just the number in nM; leave the unit off.

The examples below pair each entry with its known result.
CC(C)c1ccc2c(Nc3cc(C(=O)N[C@H]4CCc5ccccc54)ccc3Sc3ccc(N)cc3)ncnc2n1: 54
CC(C)c1ccc2c(Nc3cc(C(=O)NC(C)c4cccs4)ccc3Sc3ccc(N)cc3)ncnc2n1 (configuration not stated): 159
C[C@H](NC(=O)c1ccc(Sc2ccc(N)cc2)c(Nc2ncnc3ncccc23)c1)c1ccccc1: 6250
CC(C)c1ccc2c(Nc3cc(C(=O)N[C@@H](C)c4ccc(Br)cc4)ccc3Sc3ccc(N)cc3)ncnc2n1: 4
CC(C)c1ccc2c(Nc3cc(C(=O)N[C@@H](C)c4ccccc4Br)ccc3Sc3ccc(N)cc3)ncnc2n1: 28

Problem: Query (molecule): CC(C)c1ccc2c(Nc3cc(C(=O)N[C@@H](C)c4ccccc4)ccc3Sc3ccc(NS(C)(=O)=O)cc3)ncnc2n1 ; field requested: EC50
Solution: 51

Problem: Data request, read-out EC50, for C[C@H](NC(=O)c1ccc(Sc2ccc(N)cc2)c(Nc2ncnc3nc(C(F)(F)F)ccc23)c1)c1ccccc1
Solution: 250

###

- Assay Summary: Half life in dog at 2.5 mg/kg, iv
- Type: ADME, organism-based, Canis lupus familiaris
- Set-up: dose 2.5 mg/kg, route intravenous
- Recorded Conditions: in vivo
Measured Parameter: half-life (h)
I only need the number, in h, no unit after it.

Problem: Data request, read-out half-life, for CC(C)c1ccc2c(Nc3cc(C(=O)N[C@@H](C)c4ccccc4)ccc3Sc3ccc(N)cc3)ncnc2n1
Solution: 3.2

###

- System: Hepatitis C virus
- Assay Summary: Antiviral activity against Hepatitis C virus genotype 1a by replicon assay
- Type: functional, organism-based, Hepacivirus hominis
- Recorded Conditions: subtype 1a
Measured Parameter: log10(EC50) (log10 of the value in nM)
Each number you see is log10 of EC50, and the unit inside the log is nM.

// known answers, use as guide
Cc1ccc([C@H](C)NC(=O)c2ccc(Sc3ccc(N)cc3)c(Nc3ncnc4nc(C(C)C)ccc34)c2)cc1: 1.34
CC(C)c1ccc2c(Nc3cc(C(=O)N[C@@H](C)c4ccc(F)cc4)ccc3Sc3ccc(N)cc3)ncnc2n1: 1.00
COC(=O)Nc1ccc(Sc2ccc(C(=O)N[C@@H](C)c3ccccc3)cc2Nc2ncnc3nc(C(C)C)ccc23)cc1: 1.62
CC(C)c1ccc2c(Nc3cc(C(=O)N[C@@H](C)c4ccccc4Br)ccc3Sc3ccc(N)cc3)ncnc2n1: 2.23
CC(C)c1ccc2c(Nc3cc(C(=O)N[C@@H]4CCc5ccccc54)ccc3Sc3ccc(N)cc3)ncnc2n1: 1.20
Cc1ccccc1C(C)NC(=O)c1ccc(Sc2ccc(N)cc2)c(Nc2ncnc3nc(C(C)C)ccc23)c1 (stereo not drawn): 2.48

Problem: Query: log10(EC50); subject: CC(C)c1ccc2c(Nc3cc(C(=O)N[C@H](CO)c4ccccc4)ccc3Sc3ccc(N)cc3)ncnc2n1
Solution: 3.48

Problem: Value lookup for log10(EC50); key = CC(C)c1ccc2c(Nc3cc(C(=O)N[C@@H](CO)c4ccccc4)ccc3Sc3ccc(N)cc3)ncnc2n1
Solution: 3.66
